experiment: Half life in rat; type: ADME, organism-based; settings: in vivo
Readout Label: half-life (h)
Expressed in h, but write only the number.

Q) Given the molecule `CC(C)COC(=O)Nc1ccc(-c2cnc3c(-c4ccc(N5CCN(C)CC5)cc4)cnn3c2N)cc1` , what is its reported half-life?
A) 5.7

----------
biological target: Mast/stem cell growth factor receptor Kit (Homo sapiens)
Sequence (P10721 whole entry): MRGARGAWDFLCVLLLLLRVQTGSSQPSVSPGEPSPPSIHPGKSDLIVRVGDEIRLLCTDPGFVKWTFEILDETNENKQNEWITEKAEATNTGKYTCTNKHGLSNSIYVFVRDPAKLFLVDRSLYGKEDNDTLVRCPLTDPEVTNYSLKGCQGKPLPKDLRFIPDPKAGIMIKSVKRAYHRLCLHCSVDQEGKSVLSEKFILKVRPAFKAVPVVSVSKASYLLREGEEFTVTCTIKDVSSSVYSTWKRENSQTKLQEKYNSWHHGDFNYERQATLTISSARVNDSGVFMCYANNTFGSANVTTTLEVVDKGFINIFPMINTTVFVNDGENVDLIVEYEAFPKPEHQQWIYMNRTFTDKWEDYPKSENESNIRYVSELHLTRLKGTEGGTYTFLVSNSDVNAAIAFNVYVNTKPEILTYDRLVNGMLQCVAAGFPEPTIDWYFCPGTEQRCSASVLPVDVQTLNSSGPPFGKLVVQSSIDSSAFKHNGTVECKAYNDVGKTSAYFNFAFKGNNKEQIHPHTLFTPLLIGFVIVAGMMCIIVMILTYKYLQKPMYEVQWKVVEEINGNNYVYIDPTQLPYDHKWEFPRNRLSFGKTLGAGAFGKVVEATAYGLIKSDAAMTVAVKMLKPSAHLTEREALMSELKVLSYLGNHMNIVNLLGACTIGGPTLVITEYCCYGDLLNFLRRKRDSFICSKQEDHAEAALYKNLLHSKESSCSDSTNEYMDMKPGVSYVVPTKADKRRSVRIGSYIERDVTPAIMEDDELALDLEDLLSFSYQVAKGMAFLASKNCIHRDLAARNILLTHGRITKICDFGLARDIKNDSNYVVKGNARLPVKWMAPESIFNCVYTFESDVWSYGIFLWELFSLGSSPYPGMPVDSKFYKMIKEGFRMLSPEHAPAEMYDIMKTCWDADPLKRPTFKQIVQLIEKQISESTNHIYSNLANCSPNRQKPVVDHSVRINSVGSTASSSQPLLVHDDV
Readout Label: pIC50
On this scale, pIC50 is minus log10 of a concentration expressed in M (mol/L).

Q) State its pIC50 on Mast/stem cell growth factor receptor Kit (Homo sapiens): `CC(C)COC(=O)Nc1ccc(-c2cnc3c(-c4ccc(N5CCN(C)CC5)cc4)cnn3c2N)cc1`
A) 7.05

----------
test: in vitro; settings: rat, liver microsomes
Description: Half life in rat liver microsomes
Respond with true for half-life values of 20 min and above, false for values below.

CC(C)COC(=O)Nc1ccc(-c2cnc3c(-c4ccc(N5CCN(C)CC5)cc4)cnn3c2N)cc1 false
CC(C)COC(=O)Nc1ccc(-c2cnc3c(-c4cccc(N5CCN(C)CC5)c4)cnn3c2N)cc1 false
CC(C)COC(=O)Nc1ccc(-c2cnc3c(-c4cccc(N5CCN(C(=O)CN)CC5)c4)cnn3c2N)cc1 true
CC(C)COC(=O)Nc1ccc(-c2cnc3c(-c4cccc(N5CCNCC5)c4)cnn3c2N)cc1 true

Kindly consider the entry below.
Q) Has `CC(C)COC(=O)Nc1ccc(-c2cnc3c(-c4cccc(N5CCN(S(C)(=O)=O)CC5)c4)cnn3c2N)cc1` a recorded half-life greater than or equal to 20 min?
A) true

----------
target: Fibroblast growth factor receptor 3 (Homo sapiens, UniProt P22607)
Sequence (P22607 whole entry): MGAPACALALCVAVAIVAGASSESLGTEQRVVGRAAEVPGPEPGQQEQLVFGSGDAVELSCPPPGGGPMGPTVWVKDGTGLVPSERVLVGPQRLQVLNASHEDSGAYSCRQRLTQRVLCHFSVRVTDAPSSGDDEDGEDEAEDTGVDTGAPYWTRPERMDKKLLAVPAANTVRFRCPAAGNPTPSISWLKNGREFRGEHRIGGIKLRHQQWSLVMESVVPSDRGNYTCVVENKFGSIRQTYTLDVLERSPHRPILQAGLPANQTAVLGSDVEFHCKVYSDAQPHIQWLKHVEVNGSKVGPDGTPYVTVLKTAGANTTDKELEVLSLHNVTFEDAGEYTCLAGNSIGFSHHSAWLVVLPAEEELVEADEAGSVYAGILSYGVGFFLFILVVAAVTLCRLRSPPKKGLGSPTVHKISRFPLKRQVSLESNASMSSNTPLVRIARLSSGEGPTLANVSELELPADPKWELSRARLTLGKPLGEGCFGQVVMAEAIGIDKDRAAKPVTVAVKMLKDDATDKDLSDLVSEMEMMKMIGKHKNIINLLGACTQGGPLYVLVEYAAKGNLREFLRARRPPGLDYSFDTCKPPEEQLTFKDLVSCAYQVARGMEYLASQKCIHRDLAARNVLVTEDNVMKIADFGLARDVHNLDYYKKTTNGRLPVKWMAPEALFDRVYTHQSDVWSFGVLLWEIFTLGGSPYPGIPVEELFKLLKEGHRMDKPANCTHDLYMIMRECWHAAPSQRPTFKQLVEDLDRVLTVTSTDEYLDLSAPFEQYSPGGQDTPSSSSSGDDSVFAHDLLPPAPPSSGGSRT
pIC50: −log10 of the molar value.
Readout Label: pIC50

Q) State its pIC50 on Fibroblast growth factor receptor 3 (Homo sapiens, UniProt P22607): `CC(C)COC(=O)Nc1ccc(-c2cnc3c(-c4ccc(N5CCN(C)CC5)cc4)cnn3c2N)cc1`
A) < 5.00

----------
biological target: Tyrosine-protein kinase Lck (Homo sapiens, UniProt P06239)
Sequence (P06239 whole entry): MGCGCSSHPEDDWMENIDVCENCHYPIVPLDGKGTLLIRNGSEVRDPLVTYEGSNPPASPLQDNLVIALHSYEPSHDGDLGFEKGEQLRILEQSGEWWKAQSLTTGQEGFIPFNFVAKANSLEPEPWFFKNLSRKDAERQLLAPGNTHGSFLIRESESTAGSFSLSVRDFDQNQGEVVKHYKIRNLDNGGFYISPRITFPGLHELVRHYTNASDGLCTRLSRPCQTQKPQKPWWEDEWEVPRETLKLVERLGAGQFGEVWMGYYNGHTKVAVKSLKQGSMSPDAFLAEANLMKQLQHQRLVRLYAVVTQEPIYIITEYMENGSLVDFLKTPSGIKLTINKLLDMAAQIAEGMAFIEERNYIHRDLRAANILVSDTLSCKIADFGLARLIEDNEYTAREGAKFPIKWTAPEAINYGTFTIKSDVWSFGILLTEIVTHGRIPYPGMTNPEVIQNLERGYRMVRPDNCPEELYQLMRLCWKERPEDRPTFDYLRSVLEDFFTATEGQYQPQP
Lab note: cut-off is 40 nM. Strictly less in IC50 is criterion met. Exactly 40 nM or more is criterion not met.

See these solved cases before continuing.
Cc1nn2c(N)c(-c3cccc(O)c3)cnc2c1-c1ccc(N2CCN(C)CC2)cc1 criterion not met
Cc1nc2c(-c3cccc(N4CCN(C)CC4)c3)cnn2c(N)c1-c1ccc(NC(=O)OCC(C)C)cc1 criterion not met
CC(C)COC(=O)Nc1ccc(-c2cnc3c(-c4ccc(N5CCN(C)CC5)cc4)cnn3c2N)cc1 criterion met

Q) I wonder whether `CC(C)COC(=O)Nc1ccc(-c2cnc3c(-c4cccc(N5CCN(C(=O)CN)CC5)c4)cnn3c2N)cc1` has IC50 below 40 nM. Can you tell?
A) criterion met

Q) I wonder whether `CN1CCN(c2ccc(-c3cnn4c(N)c(-c5ccc(O)cc5)cnc34)cc2)CC1` has IC50 below 40 nM. Can you tell?
A) criterion met

Q) I wonder whether `CN1CCN(c2cccc(-c3cnn4c(N)c(-c5ccc(O)cc5)cnc34)c2)CC1` has IC50 below 40 nM. Can you tell?
A) criterion met

Q) I wonder whether `COCCN1CCN(c2ccc(-c3cnn4c(N)c(-c5ccc(NC(=O)OCC(C)C)cc5)cnc34)cc2)CC1` has IC50 below 40 nM. Can you tell?
A) criterion met

Q) I wonder whether `CC(C)COC(=O)Nc1ccc(-c2cnc3c(-c4cccc(N5CCNCC5)c4)cnn3c2N)cc1` has IC50 below 40 nM. Can you tell?
A) criterion met

Q) I wonder whether `CC(C)COC(=O)Nc1ccc(-c2cnc3c(-c4cccc(N5CCOCC5)c4)cnn3c2N)cc1` has IC50 below 40 nM. Can you tell?
A) criterion not met

----------
molecular target: Tyrosine-protein kinase HCK (Homo sapiens, UniProt P08631)
Sequence (P08631 whole entry): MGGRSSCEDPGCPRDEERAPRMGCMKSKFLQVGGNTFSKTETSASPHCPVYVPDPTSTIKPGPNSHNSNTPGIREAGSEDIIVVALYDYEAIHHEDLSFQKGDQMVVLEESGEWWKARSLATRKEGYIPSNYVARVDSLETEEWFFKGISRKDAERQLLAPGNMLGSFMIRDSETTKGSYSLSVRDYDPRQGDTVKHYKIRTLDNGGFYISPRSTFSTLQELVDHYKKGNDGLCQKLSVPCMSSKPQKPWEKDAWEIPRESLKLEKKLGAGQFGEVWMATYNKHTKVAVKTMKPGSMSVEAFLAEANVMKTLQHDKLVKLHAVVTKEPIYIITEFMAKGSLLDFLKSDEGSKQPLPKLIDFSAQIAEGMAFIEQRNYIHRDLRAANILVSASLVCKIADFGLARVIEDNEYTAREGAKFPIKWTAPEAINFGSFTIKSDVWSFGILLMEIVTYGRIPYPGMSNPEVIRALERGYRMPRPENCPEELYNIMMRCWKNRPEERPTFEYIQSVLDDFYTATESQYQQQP
Catalogue of pIC50 readings, one per entry.
On this scale, pIC50 is minus log10 of a concentration expressed in M (mol/L).

CN1CCN(c2cccc(-c3cnn4c(N)c(-c5ccc(NC(=O)NCC6CCCCC6)cc5)cnc34)c2)CC1 7.15
CN1CCN(c2cccc(-c3cnn4c(N)c(-c5ccc(NC(=O)Nc6ccccc6Cl)cc5)cnc34)c2)CC1 6.76

API: the following record is the query input.
Q) State its pIC50 on Tyrosine-protein kinase HCK (Homo sapiens, UniProt P08631): `CN1CCN(c2ccc(-c3cnn4c(N)c(-c5ccc(NC(=O)Oc6ccccc6)cc5)cnc34)cc2)CC1`
A) 7.06

----------
Catalogue of IC50 readings, one per entry.
target: Proto-oncogene tyrosine-protein kinase Src (Homo sapiens)
Sequence (P12931 2-536 limits assumed): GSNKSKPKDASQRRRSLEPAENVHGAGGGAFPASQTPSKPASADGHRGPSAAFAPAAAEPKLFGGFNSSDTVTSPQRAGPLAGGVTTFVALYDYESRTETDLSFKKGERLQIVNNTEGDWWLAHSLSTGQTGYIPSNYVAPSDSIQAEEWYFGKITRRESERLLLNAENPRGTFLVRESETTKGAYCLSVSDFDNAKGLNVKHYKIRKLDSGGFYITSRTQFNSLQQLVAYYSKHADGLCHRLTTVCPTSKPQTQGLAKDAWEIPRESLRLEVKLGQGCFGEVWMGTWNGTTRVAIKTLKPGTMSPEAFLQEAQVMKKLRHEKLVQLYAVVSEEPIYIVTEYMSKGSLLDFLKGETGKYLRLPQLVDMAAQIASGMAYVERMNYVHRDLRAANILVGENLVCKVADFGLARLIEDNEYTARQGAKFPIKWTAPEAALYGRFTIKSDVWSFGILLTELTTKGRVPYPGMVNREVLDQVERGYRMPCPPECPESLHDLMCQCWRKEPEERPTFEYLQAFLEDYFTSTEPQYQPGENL

Cc1nc2c(-c3cccc(N4CCN(C)CC4)c3)cnn2c(N)c1-c1ccc(NC(=O)OCC(C)C)cc1 > 1000 nM
CC(C)COC(=O)Nc1ccc(-c2cnc3c(-c4cccc(N5CCOCC5)c4)cnn3c2N)cc1 > 1000 nM
CN1CCN(c2ccc(-c3cnn4c(N)c(-c5ccc(NC(=O)Nc6ccccc6Cl)cc5)cnc34)cc2)CC1 > 1000 nM

API: the following record is the query input.
Q) Given the compound `COc1cc(-c2cnc3c(-c4cccc(N5CCN(C)CC5)c4)cnn3c2N)ccc1NC(=O)OCC(C)C` , what is its reported IC50?
A) > 1000 nM

Ref: ChEMBL document CHEMBL1158604
